test: In vivo pharmacokinetic test
Design: species or system SD rats
applied.conditions: SD, rat, plasma, iv; rats, i.v. 10 mg/kg
readout.label: AUC(0-inf) (ng·h/mL)
Answer with a number only, understood to be in ng·h/mL.

Returns the measured AUC(0-inf) for the input compound. Input: CO/N=C1/CN(c2nc3c(cc2F)c(=O)c(C(=O)O)cn3C2CC2)C[C@@]1(C)CN [L-aspartate (Example 1)]
9320

###

Kindly supply the reported Kp values for the records listed here.
test: In vivo tissue distribution test
Set-up: species or system ICR mice
applied.conditions: ICR, mouse, thymus, po, 100 mg/kg; read-out: P ratio Thymus
// return a plain number; no unit text

Returns the measured Kp for the input molecule. Input: CO/N=C1/CN(c2nc3c(cc2F)c(=O)c(C(=O)O)cn3C2CC2)C[C@@]1(C)CN [L-aspartate (Example 1)]
4.96

Next up: CON=C1CN(c2nc3c(cc2F)c(=O)c(C(=O)O)cn3C2CC2)C[C@@]1(C)CN.Cl [Hydrochloride (Comparative Example 3)]
4.83

###

Kindly supply the reported concentration at 0.5 h values for the records listed here.
test: In vivo tissue distribution test
Set-up: species or system ICR mice
applied.conditions: male, mouse, testicle, po; ICR mice, p.o. 100 mg/kg, 0.5 hr; read-out: Testicle concentration
Answer with a number only, understood to be in ng/g.

Returns the measured concentration at 0.5 h for the input compound. Input: CO/N=C1/CN(c2nc3c(cc2F)c(=O)c(C(=O)O)cn3C2CC2)C[C@@]1(C)CN [L-aspartate (Example 1)]
4940

Next up: CON=C1CN(c2nc3c(cc2F)c(=O)c(C(=O)O)cn3C2CC2)C[C@@]1(C)CN.Cl [Hydrochloride (Comparative Example 3)]
4790

###

test: In vivo tissue distribution test
Set-up: species or system ICR mice
applied.conditions: ICR, mouse, brain, po, 100 mg/kg; read-out: P ratio Brain
Kindly supply the reported Kp values for the records listed here.
// return a plain number; no unit text

Returns the measured Kp for the input compound. Input: CON=C1CN(c2nc3c(cc2F)c(=O)c(C(=O)O)cn3C2CC2)C[C@@]1(C)CN.Cl [Hydrochloride (Comparative Example 3)]
0.27

Next up: CO/N=C1/CN(c2nc3c(cc2F)c(=O)c(C(=O)O)cn3C2CC2)C[C@@]1(C)CN [L-aspartate (Example 1)]
0.27

###

test: In vivo tissue distribution test
Design: species or system ICR mice
applied.conditions: mouse, thymus, po; ICR mice, p.o. 100 mg/kg, 8 hr; read-out: Thymus concentration
Kindly supply the reported concentration at 8 h values for the records listed here.
Answer with a number only, understood to be in ng/g.

Returns the measured concentration at 8 h for the input molecule. Input: CON=C1CN(c2nc3c(cc2F)c(=O)c(C(=O)O)cn3C2CC2)C[C@@]1(C)CN.Cl [Hydrochloride (Comparative Example 3)]
12800

Next up: CO/N=C1/CN(c2nc3c(cc2F)c(=O)c(C(=O)O)cn3C2CC2)C[C@@]1(C)CN [L-aspartate (Example 1)]
12800

###

Kindly supply the reported Content (%) 60? (after 3 weeks) values for the records listed here.
test: Stability test in distilled water
Type: physicochemical
applied.conditions: 30 mg in 100 ml distilled water, 60?, 3 weeks
Answer with a number only, understood to be in %.

Returns the measured Content (%) 60? (after 3 weeks) for the input compound. Input: CON=C1CN(c2nc3c(cc2F)c(=O)c(C(=O)O)cn3C2CC2)C[C@@]1(C)CN.O=P(O)(O)O [Phosphate (Comparative Example 6)]
91.2

Next up: CON=C1CN(c2nc3c(cc2F)c(=O)c(C(=O)O)cn3C2CC2)C[C@@]1(C)CN [Free form (Comparative Example 2)]
34.6

Next up: CON=C1CN(c2nc3c(cc2F)c(=O)c(C(=O)O)cn3C2CC2)C[C@@]1(C)CN.O=CO [Formate (Comparative Example 5)]
75.1

Next up: CON=C1CN(c2nc3c(cc2F)c(=O)c(C(=O)O)cn3C2CC2)C[C@@]1(C)CN.Cl [Hydrochloride (Comparative Example 3)]
90.0

Next up: CO/N=C1/CN(c2nc3c(cc2F)c(=O)c(C(=O)O)cn3C2CC2)C[C@@]1(C)CN [L-aspartate (Example 1)]
87.4

Next up: CON=C1CN(c2nc3c(cc2F)c(=O)c(C(=O)O)cn3C2CC2)C[C@@]1(C)CN.CS(=O)(=O)O [Methanesulfonate (Comparative Example 4)]
89.6

Next up: `CON=C1CN(c2nc3c(cc2F)c(=O)c(C(=O)O)cn3C2CC2)C[C@@]1(C)CN.Cc1ccc(S(=O)(=O)O)cc1`
87.3
